Entry source: patent US11518764B2

Read-out record for BCL6 BTB domain (Homo sapiens (Human), UniProt P41182): pKd
Numbers only, as −log10 of the molar value.

compound	tgt	readout_kind	quantitative_readout
Cc1nc2c(c(-c3cc(C(N)=O)c(O)c(F)c3F)cn2CC(=O)Nc2cc(N3CCN(C(C)C)C[C@@H]3C)ncc2Cl)c(=O)n1C	BCL6 BTB domain (Homo sapiens (Human), UniProt P41182)	pKd	7.25
CN1C2CCC1CN(c1cc(NC(=O)Cn3cc(-c4cc(F)c(O)c(C(N)=O)c4)c4c(=O)n(C)cnc43)c(Cl)cn1)C2	BCL6 BTB domain (Homo sapiens (Human), UniProt P41182)	pKd	7.78
Cn1cnc2c(c(-c3cc(F)c(O)c(C(N)=O)c3)cn2CC(=O)Nc2cc(N3CCOCC3)ncc2F)c1=O	BCL6 BTB domain (Homo sapiens (Human), UniProt P41182)	pKd	7.58

Need pKd for each of these compounds.
1. C[C@H]1COCCN1c1cc(NC(=O)Cn2cc(-c3cc(Cl)c(O)c(C(N)=O)c3)c3c(=O)n(C)c(N4CCC4)nc32)c(Cl)cn1
2. Cn1cnc2c(c(-c3cc(Cl)c(O)c(C(N)=O)c3)cn2CC(=O)NC2CCCCC2F)c1=O (stereo not drawn)
3. CO[C@H]1CN(c2cc(NC(=O)Cn3cc(-c4cc(Cl)c(O)c(C(N)=O)c4)c4c(=O)n(C)c(C)nc43)c(Cl)cn2)C[C@H]1F

Result:
[7.20, 5.88, 7.54]

----------
biological target: BCL6 BTB domain (Homo sapiens (Human), UniProt P41182)
pKd: −log10 of the molar value.
Would you mind labelling by pKd? At or over 8 is satisfied, under is not satisfied.

molecule	tgt	discrete_label
C[C@@H]1CN(c2cc(NC(=O)Cn3cc(-c4cc(C(N)=O)c(O)c(Cl)c4F)c4c(=O)n(C)cnc43)c(Cl)cn2)C[C@H](C)O1 [Compound I-170]	BCL6 BTB domain (Homo sapiens (Human), UniProt P41182)	not satisfied
Cc1nc2c(c(-c3cc(Cl)c(O)c(C(N)=O)c3)cn2CC(=O)Nc2cc(N3CCN(C4COC4)C[C@@H]3C)nc(F)c2Cl)c(=O)n1C	BCL6 BTB domain (Homo sapiens (Human), UniProt P41182)	satisfied
Cn1cnc2c(c(-c3cc(F)c(O)c(C(N)=O)c3)cn2CC(=O)Nc2cc(N3CCCC3)ncc2Cl)c1=O	BCL6 BTB domain (Homo sapiens (Human), UniProt P41182)	satisfied
C[C@H]1CN(Cc2ccccc2)CCN1c1cc(NC(=O)Cn2cc(-c3cc(C(N)=O)c(O)c(F)c3F)c3c(=O)n(C)cnc32)c(Cl)cn1	BCL6 BTB domain (Homo sapiens (Human), UniProt P41182)	not satisfied

Consider now this further molecule.
Task: Entry Cn1cnc2c(c(-c3cc(Cl)c(O)c(C(N)=O)c3)cn2CC(=O)N[C@@H]2CCCC[C@H]2OC(=O)C(F)(F)F)c1=O : is its pKd no less than 8?
Result: not satisfied

----------
Task for the reader: assign each of the following compounds its reported Kd.
biological target: BCL6 BTB domain (Homo sapiens (Human), UniProt P41182)
Numbers only, in nM.

The following compounds have reported results that may help.
compound	readout_kind	quantitative_readout
C[C@H]1CN(C)CCN1c1cc(NC(=O)Cn2cc(-c3cc(C(N)=O)c(O)c(F)c3F)c3c(=O)n(CC#Cc4cnn(C)c4)cnc32)c(Cl)cn1	Kd	6.56
CO[C@@H]1CN(c2cc(NC(=O)Cn3cc(-c4cc(Cl)c(O)c(C(N)=O)c4)c4c(=O)n(C)c(C(F)(F)F)nc43)c(Cl)c(F)n2)C[C@@H]1F	Kd	528
CN(C)c1cc(NC(=O)Cn2cc(-c3cc(F)c(O)c(C(N)=O)c3)c3c(=O)n(C)cnc32)c(Cl)c(F)n1	Kd	5.06
Cn1cnc2c(c(-c3cc(C(N)=O)c(O)c(F)c3F)cn2CC(=O)Nc2cc(NCCCO)nc(F)c2Cl)c1=O	Kd	19.2
CN1CC2CCC(C1)N2c1cc(NC(=O)Cn2cc(-c3cc(F)c(O)c(C(N)=O)c3)c3c(=O)n(C)cnc32)c(Cl)cn1	Kd	10.1
Cn1cnc2c(c(-c3cc(Cl)c(O)c(C(N)=O)c3)cn2CC(=O)Nc2c(Cl)cnc(N3CCOCC3)c2F)c1=O [Compound I-185]	Kd	118
C[C@H]1CN(C)CCN1c1cc(NC(=O)Cn2cc(-c3cc(C(N)=O)c(O)c(Cl)c3F)c3c(=O)n(C)c(C(F)(F)F)nc32)c(Cl)cn1	Kd	582
Cc1nc2cc(Cl)c(NC(=O)Cn3cc(-c4cc(F)c(O)c(C(N)=O)c4)c4c(=O)n(C)cnc43)cc2o1	Kd	47.7

Record Kd per entry; entries follow.
1. C[C@H]1CN(C2COC2)CCN1c1cc(NC(=O)Cn2cc(-c3cc(Cl)c(O)c(C(N)=O)c3)c3c(=O)n(C)c(C(F)(F)F)nc32)c(Cl)cn1
2. Cn1cnc2c(c(-c3cc(Cl)c(O)c(C(N)=O)c3)cn2CC(=O)Nc2cc(N3CCOCC34CCC4)ncc2Cl)c1=O
3. Cn1c(NCC2CC2)nc2c(c(-c3cc(Cl)c(O)c(C(N)=O)c3)cn2CC(=O)Nc2cc(N3CCOCC3)ncc2Cl)c1=O
4. COc1c(O)c(C(N)=O)cc(-c2cn(CC(=O)Nc3cc(N4CCOC[C@@H]4C)ncc3Cl)c3ncn(C)c(=O)c23)c1F
5. CN1CCOC2CN(c3cc(NC(=O)Cn4cc(-c5cc(Cl)c(O)c(C(N)=O)c5)c5c(=O)n(C)cnc54)c(Cl)cn3)CC21 (stereo not shown)

Result:
[39.5, 20.4, 86, 74, 13.4]

----------
target: BCL6 BTB domain (Homo sapiens (Human), UniProt P41182); test: Surface plasmon resonance (SPR) assay; format: binding; settings: BCL6 BTB domain captured on SA chip, single cycle kinetics
readout_kind: Kd
// return the numeric value with its unit appended

Example entries and their recorded answers appear below.
molecule	Kd
COCCN1CCN(c2cc(NC(=O)Cn3cc(-c4cc(F)c(O)c(C(N)=O)c4)c4c(=O)n(C)cnc43)c(Cl)c(F)n2)[C@@H](C)C1	3.42 nM
CO[C@H]1CN(c2cc(NC(=O)Cn3cc(-c4cc(Cl)c(O)c(C(N)=O)c4)c4c(=O)n(C)c(C(F)(F)F)nc43)c(Cl)c(F)n2)C[C@H]1F	286 nM
CN1C(C)(C)CN(c2cc(NC(=O)Cn3cc(-c4cc(C(N)=O)c(O)c(F)c4F)c4c(=O)n(C)cnc43)c(Cl)cn2)CC1(C)C	159 nM
NC(=O)c1cc(-c2cn(CC(=O)Nc3cc(N4CC5CCC(C4)O5)ncc3Cl)c3nc[nH]c(=O)c23)cc(Cl)c1O	5.01 nM

Fill in Kd for each of the 2 molecules listed.
1. CN1CCOC2(CCN(c3cc(NC(=O)Cn4cc(-c5cc(F)c(O)c(C(N)=O)c5)c5c(=O)n(C)cnc54)c(Cl)cn3)C2)C1 (stereo not drawn)
2. C[C@H]1CN(C2COC2)CCN1c1cc(NC(=O)Cn2cc(-c3cc(Cl)c(O)c(C(N)=O)c3)c3c(=O)n(C)cnc32)c(Cl)cn1

Result:
["5.88 nM", "6.15 nM"]

----------
target: BCL6 BTB domain (Homo sapiens (Human), UniProt P41182)
Rule: measured Kd below 70 nM gets fulfilled; anything equal to or greater than 70 nM gets not fulfilled.

Task: I wonder whether CN1CCN(c2cc(NC(=O)Cn3cc(-c4cc(C(N)=O)c(O)c(Cl)c4F)c4c(=O)n(C)cnc43)c(Cl)cn2)CC1 has Kd below 70 nM. Can you tell?
Result: not fulfilled

Task: Next record, please: Cc1nc2cc(Cl)c(NC(=O)Cn3cc(-c4cc(F)c(O)c(C(N)=O)c4)c4c(=O)n(C)cnc43)cc2s1
Result: fulfilled

Task: Item: CN(C)c1cc(NC(=O)Cn2cc(-c3cc(Cl)c(O)c(C(N)=O)c3)c3c(=O)n(C)c(NCC4CC4)nc32)c(Cl)cn1
Result: not fulfilled

Task: One more compound: CN1CC2CC(C1)N2c1cc(NC(=O)Cn2cc(-c3cc(F)c(O)c(C(N)=O)c3)c3c(=O)n(C)cnc32)c(Cl)cn1
Result: fulfilled

Task: Also check C[C@H]1COCCN1c1cc(NC(=O)Cn2cc(-c3cc(C(N)=O)c(O)c(F)c3F)c3c(=O)n(C)cnc32)c(F)cn1
Result: not fulfilled

Task: And the next one, C[C@H]1CN(C)C[C@H](C)N1c1cc(NC(=O)Cn2cc(-c3cc(C(N)=O)c(O)c(F)c3F)c3c(=O)n(C)cnc32)c(Cl)c(F)n1 ?
Result: not fulfilled

Task: For CN1CC2CN(c3cc(NC(=O)Cn4cc(-c5cc(Cl)c(O)c(C(N)=O)c5)c5c(=O)n(C)cnc54)c(Cl)cn3)CCN2C1=O (stereo not shown) then?
Result: fulfilled

Task: Here is the next compound: COc1cc(-c2cn(CC(=O)Nc3cc(N4CCOC[C@@H]4C)ncc3Cl)c3ncn(C)c(=O)c23)cc(C(N)=O)c1O
Result: fulfilled

Task: Another compound to check: CN(C)c1cc(NC(=O)Cn2cc(-c3cc(C(N)=O)c(O)c(F)c3F)c3c(=O)n(C)cnc32)c(Cl)cn1
Result: fulfilled

Task: Ok, now Cc1nc2c(c(-c3cc(C(N)=O)c(O)c(F)c3F)cn2CC(=O)Nc2cc(N3CCOC[C@@H]3C)ncc2Cl)c(=O)n1C
Result: not fulfilled
